biological target: Ba/F3 EGFR Wild-type (Homo sapiens); assay: CellTiter-Glo cell viability, Ba/F3 EGFR wild-type cells; assay type: cell-based, murine; conditions: 72 hours, read-out: Ba/F3 EGFR mutant cell (IC50, nM) WT
Sequence (P00533 whole entry, change not shown): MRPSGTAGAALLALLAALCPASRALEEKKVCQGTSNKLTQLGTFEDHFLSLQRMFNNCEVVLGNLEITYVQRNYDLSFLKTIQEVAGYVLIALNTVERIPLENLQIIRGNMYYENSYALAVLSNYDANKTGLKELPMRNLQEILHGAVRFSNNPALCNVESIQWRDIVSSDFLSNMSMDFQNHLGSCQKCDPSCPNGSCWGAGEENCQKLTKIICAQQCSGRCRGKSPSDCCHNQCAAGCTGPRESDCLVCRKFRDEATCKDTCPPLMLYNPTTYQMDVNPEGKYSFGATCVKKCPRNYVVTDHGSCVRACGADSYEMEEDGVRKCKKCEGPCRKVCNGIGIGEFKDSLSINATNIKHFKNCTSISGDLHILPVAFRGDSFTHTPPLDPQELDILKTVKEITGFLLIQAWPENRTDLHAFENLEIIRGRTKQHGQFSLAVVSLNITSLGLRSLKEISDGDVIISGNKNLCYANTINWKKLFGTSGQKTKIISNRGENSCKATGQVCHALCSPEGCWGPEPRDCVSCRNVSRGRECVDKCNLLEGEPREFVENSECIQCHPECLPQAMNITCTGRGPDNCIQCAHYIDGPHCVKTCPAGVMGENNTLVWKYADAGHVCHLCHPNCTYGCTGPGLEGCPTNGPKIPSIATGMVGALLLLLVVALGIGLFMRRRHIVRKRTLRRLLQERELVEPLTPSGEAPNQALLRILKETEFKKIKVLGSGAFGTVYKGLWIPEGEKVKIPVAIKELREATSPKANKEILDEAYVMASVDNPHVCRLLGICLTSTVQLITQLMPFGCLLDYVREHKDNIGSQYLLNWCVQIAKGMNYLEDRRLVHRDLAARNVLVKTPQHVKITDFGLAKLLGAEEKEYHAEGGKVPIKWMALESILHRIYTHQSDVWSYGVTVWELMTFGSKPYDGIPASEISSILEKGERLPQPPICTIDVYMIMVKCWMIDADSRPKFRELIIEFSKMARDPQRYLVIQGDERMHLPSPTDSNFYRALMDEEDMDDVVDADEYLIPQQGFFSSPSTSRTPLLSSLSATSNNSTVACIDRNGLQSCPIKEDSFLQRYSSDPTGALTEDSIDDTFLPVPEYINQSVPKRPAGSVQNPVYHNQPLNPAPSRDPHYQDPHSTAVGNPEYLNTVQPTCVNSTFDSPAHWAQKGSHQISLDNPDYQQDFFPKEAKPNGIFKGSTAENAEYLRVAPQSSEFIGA
Measurement Name: GI50 (nM)
Provide the reading as a plain figure in nM.

Give recorded GI50. COc1cc(C2=CCNCC2)c(C)cc1Nc1ncc(Br)c(Nc2ccc3nccnc3c2NS(C)(=O)=O)n1 [Example D2] 1430

Answer with reported GI50 of COc1cc(N2CCC(N3CCN(C)CC3)CC2)c(C2CC2)cc1Nc1ncc(Cl)c(Nc2ccc3nccnc3c2NS(C)(=O)=O)n1 938

Give the measured GI50 for CCS(=O)(=O)Nc1c(Nc2nc(Nc3cc(C)c(N4CCC(N5CCN(C)CC5)CC4)cc3OC)ncc2Cl)ccc2nccnc12 373

Using the record for CCc1cc(Nc2ncc(Cl)c(Nc3ccc4nccnc4c3N(C)S(C)(=O)=O)n2)c(OC)cc1N1CCC(N2CC3CCC2CN3C)CC1 (stereo not drawn) , state its measured GI50. 730

Return reported GI50. Input compound: COc1cc(N2CCC(N3CCN(C)CC3)CC2)c(C)cc1Nc1ncc(Br)c(Nc2cccc(OC)c2N(C)S(C)(=O)=O)n1 660

Please report GI50 for the following compound: CCc1cc(Nc2ncc(Br)c(Nc3ccc4nccnc4c3N(C)S(C)(=O)=O)n2)c(OC)cc1N1CCC(N(C)C)CC1 427

Find the measured GI50 of COc1cc(N2CCC(N3CCN(C)CC3)CC2)ccc1Nc1ncc(Cl)c(Nc2ccc3c(c2NS(C)(=O)=O)OCCO3)n1 and report it. 755

Give a short answer stating reported GI50 for CCCc1cc(Nc2ncc(Cl)c(Nc3ccc(OC)cc3NS(C)(=O)=O)n2)c(OC)cc1N1CCC(N(C)C)CC1 . 731

Return GI50 for the following compound: CCc1cc(Nc2ncc(Br)c(Nc3ccc4nccnc4c3N(C)S(C)(=O)=O)n2)c(OC)cc1N1CCC(N2CCOCC2)CC1 779

Look up and state reported GI50 for COc1cc(N2CCC(N3CCCC3)CC2)c(C)cc1Nc1ncc(Cl)c(Nc2ccc3c(c2NS(C)(=O)=O)OCCO3)n1 565

Tell us which GI50 value is on record for CCc1cc(Nc2ncc(Cl)c(Nc3ccc(OC)c(OC)c3N(C)S(C)(=O)=O)n2)c(OC)cc1N1CCC(N2CCOCC2)CC1 1920

Give GI50 for the following compound: COc1cc(N2CCC(N3CCN(C)CC3)CC2)c(C)cc1Nc1ncc(Br)c(Nc2ccc3nccnc3c2NS(=O)(=O)C2CC2)n1 395

Return GI50 (reported value) for this compound: COc1cc(N2CCC(N(C)C)CC2)c(C)cc1Nc1ncc(Br)c(Nc2cccc(OC)c2N(C)S(C)(=O)=O)n1 545

Tell me its GI50 given COc1ccc(Nc2nc(Nc3cc(C)c(N4CCC(N5CCN(C)CC5)CC4)cc3OC)ncc2Cl)c(NS(C)(=O)=O)c1 as the entry. 421

# return recorded GI50 for input COc1cc(N2CCC(N3CCN(C)CC3)CC2)c(C)cc1Nc1ncc(Cl)c(Nc2ccc3nccnc3c2NS(C)(=O)=O)n1 312

Look up and report measured GI50 for this entry: CCCc1cc(Nc2ncc(Cl)c(Nc3ccc4nccnc4c3NS(C)(=O)=O)n2)c(OC)cc1N1CCC(N(C)C)CC1 431

Please give measured GI50 of the following entry: CCc1cc(Nc2ncc(Br)c(Nc3ccc4nccnc4c3NS(C)(=O)=O)n2)c(OC)cc1N1CCC(N(C)C)CC1 2100

Answer with reported GI50 of COc1cc(N2CCC(N3CCN(C)CC3)CC2)ccc1Nc1ncc(Cl)c(Nc2ccc3scnc3c2NS(C)(=O)=O)n1 804

Give me measured GI50, please, for this compound: CCc1cc(Nc2ncc(Cl)c(Nc3cccc(OC)c3NS(C)(=O)=O)n2)c(OC)cc1N1CCC(N2CCOCC2)CC1 1160

Assign GI50 to the following record: CCS(=O)(=O)Nc1c(Nc2nc(Nc3cc(C)c(N4CCC(N5CCN(C)CC5)CC4)cc3OC)ncc2Cl)cccc1OC 486

In one line, give reported GI50 of the entry CCc1cc(Nc2ncc(Cl)c(Nc3ccc(OC)c(OC)c3NS(C)(=O)=O)n2)c(OC)cc1N1CCC(N2CCOCC2)CC1 . 835

Sourced from patent US12297194B2
